System: Mus musculus
Assay: Locomotor activity in iv dosed Harlan ICR mouse from 5 to 15 mins by spontaneous locomotor activity test
Format: functional
Threshold 0.4 µmol/kg: ED50 strictly smaller gives label 1, otherwise label 0.

[
  {
    "smiles-text": "Cc1c(C(=O)c2cccc3ccccc23)c2cccc3c2n1[C@H](CN1CCOCC1)CO3",
    "label-value": "label 1"
  }
]

Ask: # strict comparison: is reported ED50 < 0.4 µmol/kg? input = CCCCCn1cc(C(=O)c2cccc3ccccc23)c2ccccc21
Reply: label 0

Ask: # strict comparison: is reported ED50 < 0.4 µmol/kg? input = CCCn1c(C)c(C(=O)c2cccc3ccccc23)c2ccccc21
Reply: label 0
